All figures here come from ChEMBL document CHEMBL2218924.

- Target Under Test: Tyrosine-protein kinase Fyn (Homo sapiens) (UniProt P06241)
- Sequence (P06241 2-537 limits assumed): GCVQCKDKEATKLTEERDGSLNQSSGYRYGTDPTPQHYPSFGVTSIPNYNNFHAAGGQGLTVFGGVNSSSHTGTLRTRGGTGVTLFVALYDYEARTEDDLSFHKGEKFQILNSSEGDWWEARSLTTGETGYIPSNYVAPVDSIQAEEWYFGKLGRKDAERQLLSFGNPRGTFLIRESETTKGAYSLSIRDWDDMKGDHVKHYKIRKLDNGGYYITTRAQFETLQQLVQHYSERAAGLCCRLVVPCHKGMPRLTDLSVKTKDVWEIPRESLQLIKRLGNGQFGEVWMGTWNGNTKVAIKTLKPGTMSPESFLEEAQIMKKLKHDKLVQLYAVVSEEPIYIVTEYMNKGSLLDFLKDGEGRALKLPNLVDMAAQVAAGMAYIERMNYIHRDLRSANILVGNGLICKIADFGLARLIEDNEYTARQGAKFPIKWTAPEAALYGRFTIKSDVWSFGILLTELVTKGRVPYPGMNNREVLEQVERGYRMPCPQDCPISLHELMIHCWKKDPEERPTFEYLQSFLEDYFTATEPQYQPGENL
- Setup Conditions: at 10 µM
Readout Name: residual activity

Completed entries (count: 6):
Nc1nc(Nc2ccc(S(N)(=O)=O)cc2)nn1C(=O)c1c(F)cccc1F	10%
O=C(Nc1ccc(Cl)cc1)c1ccccc1NCc1ccncc1	70%
O=C1Cc2c([nH]c3ccc([N+](=O)[O-])cc23)-c2ccccc2N1	0%
O=C1Cc2c([nH]c3ccc(Br)cc23)-c2ccccc2N1	11%
CN(C)S(=O)(=O)c1ccc2c(c1)/C(=C/c1cc3c([nH]1)CCCC3)C(=O)N2	24%
CCCCc1c(-c2ccc(OC)cc2)[nH]c2nccnc12	37%

In the following, a different compound is considered.
Input line: Which residual activity value is on record for `Nc1ncnc2[nH]nc(Nc3ccc(F)cc3)c12` ?
Output line: 17%
